Consider the following compounds and their measured growth readings.
Tested on: A549/ATCC NSCLC
Assay: NCI-60 one-dose screen, 48 h (100 = growth as untreated, 0 = no growth, -100 = all killed)
Details: 10 µM unless noted
About 83,000 compounds went through this panel and 20% of them were active in at least one assay; those are over-represented in the sample as a whole. The source made the active and inactive calls. How the source made its calls: active means growth percent below 10; inactive means the rest.

>  <COMPOUND>
CC/C(Cc1ccccc1)=C(\c1ccc(OCCN2CCCCCC2)cc1)c1ccc(OC(=O)NCc2ccccc2)cc1

>  <growth>
64.4% (inactive)

$$$$
>  <COMPOUND>
C[C@@H]1O[C@@H](O[C@@H]2C[C@H](c3ccc4c(c3O)C(=O)C3=C(C4=O)[C@@]4(O)C(=O)C[C@](C)(O)C[C@@]4(O)C=C3)O[C@H](C)[C@H]2O)C[C@H](O)[C@@H]1O

>  <growth>
94.7% (inactive)

$$$$
>  <COMPOUND>
O=C1/C(=C/c2ccc(C(F)(F)F)cc2)COc2ccc(O)cc21

>  <growth>
87.1% (inactive)

$$$$
>  <COMPOUND>
N=C(N)c1ccc(-c2ccc(-c3ccc(Cl)cc3Cl)s2)cc1F

>  <growth>
-55.8% (active)

$$$$
>  <COMPOUND>
CC12CCC(/C(=C/NNc3ccc([N+](=O)[O-])cc3[N+](=O)[O-])C1=O)C2(C)C (stereo not given)

>  <growth>
77.9% (inactive)

$$$$
>  <COMPOUND>
CCOC(=O)c1c(NC(=O)c2ccc(OC)cc2)sc2c(CN(C)C)c(O)ccc12

>  <growth>
74% (inactive)

$$$$
>  <COMPOUND>
CCNC(=O)Oc1ccc(/C(=C(/C)Cc2ccc(OC)cc2)c2ccc(OCCN3CCCC3)cc2)cc1

>  <growth>
66.4% (inactive)

$$$$
>  <COMPOUND>
Cc1ccc2[nH]c(=O)c3c(c2c1)OC(N)=C(C#N)C31C(=O)c2cccc3cccc1c23 (stereo not given)

>  <growth>
103% (inactive)

$$$$
>  <COMPOUND>
CN1CCN(c2ccc3c(c2)nc(NNC(=O)c2cnccn2)c2cccn23)CC1

>  <growth>
21.9% (inactive)

$$$$
>  <COMPOUND>
COc1cc2nc(Nc3cccc(F)c3)nc(Nc3cc(C)[nH]n3)c2cc1OC

>  <growth>
-55% [20 µM] (active)

$$$$
>  <COMPOUND>
Cc1ccc2nc(Cl)c(Cn3nnnc3SCc3ccccc3)cc2c1

>  <growth>
92.5% (inactive)

$$$$
>  <COMPOUND>
COc1cc(C(=O)c2c(-c3ccccc3)oc3c(OC)cccc23)cc(OC)c1O

>  <growth>
20.2% (inactive)

$$$$
>  <COMPOUND>
N#Cc1c(-c2ccccc2)c(C#N)c2c(C#N)c(N)nn2c1N

>  <growth>
38.7% (inactive)

$$$$
>  <COMPOUND>
COc1ccc(Nc2ncccc2NC(=O)c2cn(Cc3cccc(Oc4ccccc4)c3)nn2)cc1OC

>  <growth>
86.7% (inactive)

$$$$
>  <COMPOUND>
N#Cc1c(N2CCOCC2)nc(=S)[nH]c1-c1ccccc1

>  <growth>
85.6% (inactive)

$$$$
>  <COMPOUND>
C[N+](C)(C/C=C/c1ccccc1)Cc1ccccc1

>  <growth>
94.4% (inactive)

$$$$
>  <COMPOUND>
CN(CCC#N)c1ccc(/C=C2\NC(=O)NC2=O)cc1

>  <growth>
111% (inactive)

$$$$
>  <COMPOUND>
O=P(O)(O)OCC1OC(n2cnc3c(NCc4ccccc4)ncnc32)C(O)C1O (stereo not given)

>  <growth>
55.1% (inactive)

$$$$
>  <COMPOUND>
CCOC(=O)C(=Cc1cccc(C#N)c1)C(=O)OCC

>  <growth>
75.5% (inactive)

$$$$
>  <COMPOUND>
O=c1[nH]cnc2c1C(c1ccc(Br)cc1)c1sc3c(F)cccc3c1O2 (stereo not given)

>  <growth>
96.3% (inactive)

$$$$

----------
Test system: CCRF-CEM leukemia
Assay: NCI-60 one-dose screen, 48 h (100 = growth as untreated, 0 = no growth, -100 = all killed)
Details: 10 µM unless noted
About 83,000 compounds went through this panel and 20% of them were active in at least one assay; those are over-represented in the sample as a whole.

>  <COMPOUND>
COc1ccc(-c2nnc(SCC(=O)Nc3ccc(/C(C)=N\O)cc3)n2-c2ccccc2)cc1OC

>  <growth / %>
98.5

$$$$
>  <COMPOUND>
Cc1ccc(-c2csc(NC(=O)N3CCN(c4cc5c(cc4F)c(=O)c(C(=O)O)cn5C4CC4)CC3)n2)cc1

>  <growth / %>
12.9

$$$$
>  <COMPOUND>
CC1(C)CC2=C3C=C[C@@H]4[C@@]5(C)CC[C@H](O)C(C)(C)[C@@H]5CC[C@@]4(C)[C@]3(C)CC[C@@]2(C(=O)O)CC1=O

>  <growth / %>
25.2

$$$$
>  <COMPOUND>
Cc1nc2sc(C(=O)Nc3ccccc3)c(N)c2cc1C(=O)/C=C/c1ccccc1

>  <growth / %>
6.14

$$$$
>  <COMPOUND>
CC1O[C@@H]2C[C@@](O)([C@H]1O)n1c3ccccc3c3c4c(c5c6ccccc6n2c5c31)C(=O)NC4=O (some centres undefined)

>  <growth / %>
27.9

$$$$
>  <COMPOUND>
CCn1cc(CNc2ccc(C(=O)Nc3cc4cc(OC)c(OC)cc4c(C)n3)cc2)c(C)n1

>  <growth / %>
11.8

$$$$
>  <COMPOUND>
CC(=O)c1cc(-c2ccccc2N)n(-c2ccc3c(c2)OCO3)c1C

>  <growth / %>
11.8

$$$$
>  <COMPOUND>
S=c1ssnc1-c1cccs1

>  <growth / %>
97.5

$$$$
>  <COMPOUND>
O=C(CCCCl)NNc1nccc(Nc2ccc(S(=O)(=O)Nc3ccncc3)cc2)n1

>  <growth / %>
116

$$$$

----------
System: UACC-62 melanoma
Test: NCI-60 one-dose screen, 48 h
Details: 10 µM unless noted
This is part of a sample that, as a whole, favours compounds with a hit. Of some 83,000 tested, about 20% had one in any assay. Active and inactive are the calls of the source. Rule for the calls: active = growth percent below 10; inactive = the rest.
Outcome codes: active, inactive

>  <MOLECULE>
Cc1c2cnccc2c(C)c2c1c1cc(C3OCCCO3)ccc1n2C

>  <GROUP>
active

$$$$
>  <MOLECULE>
Cc1c(N2CN3C[C@H](C)N4CN(c5c(C)n(C)n(-c6ccccc6)c5=O)CN5C[C@@H](C)N(C2)C3C54)c(=O)n(-c2ccccc2)n1C (stereo not given in full)

>  <GROUP>
inactive

$$$$
>  <MOLECULE>
C(/C=C/c1ccccc1)=Nc1ccc(CCc2ccc(N=C/C=C/c3ccccc3)cc2)cc1

>  <GROUP>
inactive

$$$$
>  <MOLECULE>
O=c1nc(Nc2nc3ccccc3s2)[nH]c(=O)c2ccccc12

>  <GROUP>
inactive

$$$$
>  <MOLECULE>
CN(CCC#N)c1ccc(/C=C2\NC(=O)NC2=O)cc1

>  <GROUP>
inactive

$$$$
>  <MOLECULE>
C[Se]C(=O)CC1=C2C=C(F)C=CC2/C(=C\c2ccc(S(C)=O)cc2)C1C (stereo not given)

>  <GROUP>
inactive

$$$$
>  <MOLECULE>
COc1cc(-c2cc(-c3ccc(Nc4ncnc5cc(Cl)ccc45)cc3)nc(N3CCN(C)CC3)n2)cc(OC)c1OC

>  <GROUP>
inactive

$$$$
>  <MOLECULE>
C/C(C=O)=C\c1ccc2c(c1)OCO2

>  <GROUP>
inactive

$$$$
>  <MOLECULE>
N#Cc1c(-c2ccccc2)c(C#N)c2c(C#N)c(N)nn2c1N

>  <GROUP>
inactive

$$$$
>  <MOLECULE>
COP(=O)(OC)c1nnn(-c2cccc([N+](=O)[O-])c2)c1C

>  <GROUP>
inactive

$$$$
>  <MOLECULE>
Cc1ccc(Nc2nc(-c3ccc(F)cc3)c(C#N)c(=O)n2C)cc1

>  <GROUP>
inactive

$$$$
>  <MOLECULE>
CCCCc1oc2ccccc2c1C(=O)c1ccc(O)cc1

>  <GROUP>
inactive

$$$$
>  <MOLECULE>
COc1cc(/C=C2\CN(S(=O)(=O)c3ccc(C)cc3)C/C(=C\c3cc(CN4CCCCC4)c(O)c(OC)c3)C2=O)cc(CN2CCCCC2)c1O

>  <GROUP>
active

$$$$
>  <MOLECULE>
Cc1ccccc1OCC(O)COc1ccccc1C

>  <GROUP>
inactive

$$$$
>  <MOLECULE>
CCCCCCOC(=O)CC1=C(C)/C(=C/c2[nH]c(-c3ccc[nH]3)cc2OC)N=C1C

>  <GROUP>
active

$$$$
>  <MOLECULE>
COc1ccccc1-n1c(-c2cc(O)ccc2C)cn2c3c(=O)[nH]c(=O)n(C)c3nc12

>  <GROUP>
inactive

$$$$
>  <MOLECULE>
CCCCN1C(=O)/C(=c2\sc3n(c2=O)NC2C(N=3)N(CC)C(=O)N2CC)c2ccccc21 (stereo not given)

>  <GROUP>
inactive

$$$$
>  <MOLECULE>
C=C1C(=O)O[C@H]2[C@H]1CC/C(CNC(=O)c1cc3ccccc3[nH]1)=C\CC[C@@]1(C)O[C@@H]21

>  <GROUP>
active

$$$$
>  <MOLECULE>
Cn1cc(-c2nonc2-c2c[nH]c3ccccc23)c2ccccc21

>  <GROUP>
active

$$$$
>  <MOLECULE>
CCC(C)Nc1ccc(NC(C)CC)cc1 (stereo not given)

>  <GROUP>
inactive

$$$$
>  <MOLECULE>
Cc1cc(C(=O)Nc2cc(Nc3ncccc3-c3ncnc4nc[nH]c34)ccc2F)cc(C(F)(F)F)c1

>  <GROUP>
active

$$$$
>  <MOLECULE>
O=C(OC[C@@H]1CO1)c1cccc2c(=O)c3ccccc3[nH]c12

>  <GROUP>
active

$$$$
>  <MOLECULE>
C=C(c1ccc(C(=O)O)cn1)c1cc2c(cc1C)C(C)(C)CCC2(C)C

>  <GROUP>
inactive

$$$$
>  <MOLECULE>
COc1cc2oc(-c3cccc(NC(=O)c4ccc5c(c4)OCO5)c3)cc(=O)c2c(OC)c1OC

>  <GROUP>
inactive

$$$$
>  <MOLECULE>
Fc1ccc(COc2ccc(Nc3ncnc4sc5c(c34)CCCC5)cc2)cc1

>  <GROUP>
inactive

$$$$
>  <MOLECULE>
CCn1cc(C2=C(c3cn(C)c4ncccc34)C(=O)NC2=O)c2cccnc21

>  <GROUP>
inactive

$$$$
>  <MOLECULE>
NC(CSC(c1ccccc1)(c1ccccc1)c1ccc2c(c1)OCO2)C(=O)O (stereo not given)

>  <GROUP>
inactive

$$$$
>  <MOLECULE>
Cc1cscc(C)c1=S

>  <GROUP>
inactive

$$$$
>  <MOLECULE>
CC(C)(C)C(=O)/C=C/c1ccc([N+](=O)[O-])cc1

>  <GROUP>
inactive

$$$$
>  <MOLECULE>
Nc1ncnc2c1c(-c1ccc(Oc3ccccc3)cc1)nn2CC1SSCC1O (stereo not given)

>  <GROUP>
active

$$$$
>  <MOLECULE>
O=C1Nc2ccccc2C2c3cccn3-c3ccccc3N12 (stereo not given)

>  <GROUP>
inactive

$$$$
>  <MOLECULE>
COc1ccc(-c2cc(-c3ccc(OC)cc3)nc(NCCCNc3ccnc4cc(Cl)ccc34)n2)cc1

>  <GROUP>
inactive

$$$$
>  <MOLECULE>
COC(c1ccc2ccccc2c1)C(C)C(F)F (stereo not given)

>  <GROUP>
inactive

$$$$
>  <MOLECULE>
C=C1C(=O)O[C@H]2[C@H]1CC/C(COC(=O)/C=C\C(=O)NCc1ccc(Cn3c(=O)sn(-c4ccccc4)c3=O)cc1)=C\CC[C@@]1(C)O[C@@H]21

>  <GROUP>
inactive

$$$$
>  <MOLECULE>
COC(=O)C1=Nc2ccc(F)cc2/C1=C\c1sc(Nc2ccc(O)cc2)nc1O

>  <GROUP>
inactive

$$$$
>  <MOLECULE>
O=C(Nc1cccnc1Nc1ccc(Cl)cc1)c1cn(Cc2ccc(F)cc2)nn1

>  <GROUP>
inactive

$$$$
>  <MOLECULE>
C=C1C(=O)O[C@H]2[C@H]1CC/C(COC(=O)c1cc3cc(F)ccc3[nH]1)=C\CC[C@@]1(C)O[C@@H]21

>  <GROUP>
active

$$$$
>  <MOLECULE>
Cc1cc2oc(=O)cc(CP(=O)(O)O)c2cc1O

>  <GROUP>
inactive

$$$$
>  <MOLECULE>
CSCCC(NC(=O)c1ccccc1)C(=O)N/N=C1\S/C(=C/c2ccc(Cl)cc2)C(=O)N1C (stereo not given)

>  <GROUP>
inactive

$$$$
>  <MOLECULE>
O=C1N[C@@H]2[C@@H](O)[C@@H](O)[C@H](O)C[C@H]2c2cc3c(c(O)c21)OCCO3

>  <GROUP>
active

$$$$

The measured values listed here are drawn from PubChem BioAssay (NCI).
